Reported values of Kd for individual entries
- target system: T1, Macaca fascicularis (mf) RET.mmh (Macaca fascicularis)
- T1 construct: also called monkey RET
- T1 chain: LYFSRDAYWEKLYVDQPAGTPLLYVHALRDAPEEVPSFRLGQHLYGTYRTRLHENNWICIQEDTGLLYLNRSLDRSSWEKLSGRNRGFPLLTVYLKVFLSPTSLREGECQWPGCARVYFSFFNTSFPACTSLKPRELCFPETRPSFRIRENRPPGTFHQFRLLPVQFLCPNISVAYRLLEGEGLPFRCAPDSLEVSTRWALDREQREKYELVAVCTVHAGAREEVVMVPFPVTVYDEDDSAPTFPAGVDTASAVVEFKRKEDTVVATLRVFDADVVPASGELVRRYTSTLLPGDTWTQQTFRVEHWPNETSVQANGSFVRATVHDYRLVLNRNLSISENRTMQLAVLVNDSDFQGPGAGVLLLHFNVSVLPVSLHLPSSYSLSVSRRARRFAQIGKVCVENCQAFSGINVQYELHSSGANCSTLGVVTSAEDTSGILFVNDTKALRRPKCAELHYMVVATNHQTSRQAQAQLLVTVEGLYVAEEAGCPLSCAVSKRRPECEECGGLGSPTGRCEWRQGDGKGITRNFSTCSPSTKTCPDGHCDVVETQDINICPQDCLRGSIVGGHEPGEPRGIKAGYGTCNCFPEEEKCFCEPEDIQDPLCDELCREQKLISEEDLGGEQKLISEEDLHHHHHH
- assay procedure: SPR Biacore T200, mAb capture, 37 C
I only need the number, in nM, no unit after it.

Solved entries (count: 3):
binder="H4H8062P (antibody, human IgG4, V domains shown, human IgG4 Fc (H4H prefix)) VH: EVQLVESGGGLVQPGGSLRLSCSVSGFIFKNYAMRWVRQAPGKGLEWVSGISGSGGITYYADSVRGRVTISRDNSKNTLDLQMTNLRAEDTAVYYCAKAEYSSSGAYFDYWGQGTLVTVSS VL: DIQMTQSPSSLSASVGDRVTITCRASQSIHNYLNWYLQRPGKAPKLLVYAASSLQSGVPSRFSGRGSGTDFTLTISSLQPEDFATYYCQQSYSAPYSFGQGTKLEIK" attribute_measured=Kd uom=nM quantitative_result=6.31
binder="H4H8046P (antibody, human IgG4, V domains shown, human IgG4 Fc (H4H prefix)) VH: QVQLVQSRDEVKKPGASVKVSCKASGYTFTTYGISWVRQAPGQGLEWMGWINTYNGDTNYAQKVQDRVIMTTDTSTSTAYMELRSLRSDDTAVYFCAGARPLGGRRAFDIWGQGTMVTVSS VL: DIQMTQSPSSLSASVGDRVTITCRASQGISHYLAWYQQKPGKVPKLLIYAASTLQSGVPSRFSGSGSGTDFTLTISSLQPEDVATYYCQKYNSVPWTFGQGTKVEIK" attribute_measured=Kd uom=nM quantitative_result=1.92
binder="H4H8067P (antibody, human IgG4, V domains shown, human IgG4 Fc (H4H prefix)) VH: QVQLVESGGGVVQPGRSLRLSCVASGFTFSNYGMHWVRQAPGKGLEWVALIWYDGSNKYFADSVKGRFTISRDNSKRMMFLEMNSLRAEDTAIYYCTRDRLFDFWGQGTLVTVSS VL: AIQMTQSPSSLSASVGDRVSITCRASQDIRHDLGWFHQKPGKAPKLLIYAASTLQSGVPSRFGGSGSGTDFTLTITSLQPEDFGTYYCLQDYNYPATFGQGTRLEIK" attribute_measured=Kd uom=nM quantitative_result=196

Field: next binder
QUERY: For the binder H4H8085P (antibody, human IgG4, V domains shown, human IgG4 Fc (H4H prefix)) VH: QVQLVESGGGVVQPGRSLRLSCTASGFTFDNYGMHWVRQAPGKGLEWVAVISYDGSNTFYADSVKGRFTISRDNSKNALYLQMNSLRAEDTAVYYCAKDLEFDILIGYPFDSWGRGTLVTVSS VL: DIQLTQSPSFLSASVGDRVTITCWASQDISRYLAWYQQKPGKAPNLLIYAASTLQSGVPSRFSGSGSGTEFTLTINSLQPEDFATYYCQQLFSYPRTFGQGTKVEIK , report Kd.
RESULT: 8.3

These data points were gathered from patent US20220185900A1.
